Origin of the recorded values: ChEMBL document CHEMBL5036346

assay: Initial plasma concentration in Wistar rat at 15 mg/kg, iv by HPLC analysis; type: ADME, organism-based

molecule.smiles	C0
C[C@@H](O)CCCCn1c(=O)c2c(ncn2C)n(C)c1=O	16400 ng/mL

----------
test: AUMC (0 to t) in Wistar rat at 15 mg/kg, iv measured after 24 hrs by HPLC analysis; format: ADME, organism-based; conditions: in vivo

molecule.smiles	unit.name	AUMCt
C[C@@H](O)CCCCn1c(=O)c2c(ncn2C)n(C)c1=O	ng·h²/mL	12100

----------
experiment: MRT in Wistar rat at 30 mg/kg, iv measured after 24 hrs by HPLC analysis; type: ADME, organism-based; conditions: Wistar, in vivo, read-out: MRT
MRT overview

compound	MRT [h]
CCCCC/C=C/CC=CCCCCCCCC(=O)OC(C)CCCCn1c(=O)c2c(ncn2C)n(C)c1=O (stereo not drawn)	6.55
CCCCCCCCC=CCCCCCCCC(=O)OC(C)CCCCn1c(=O)c2c(ncn2C)n(C)c1=O (stereo not drawn)	7.91
CCCCCCCCCCCCCCCC(=O)OC(C)CCCCn1c(=O)c2c(ncn2C)n(C)c1=O (stereo not drawn)	9.07
